Target: CA10-3 pseudovirus envelope (HIV-1)
Assay: cell-based or functional assay
Recorded EC50, single-cycle HIV-1 pseudovirus infection of GHOST cells (luciferase) by entry
Enter your answer as a number in nM; do not include the unit.

Some solved entries appear below for comparison.
XNLHFCQLRCKSLGLLGRCAXTXCACV (not fully specified; N-terminal thiopropionic acid (TPA) at position 1; (D)Pro at 21; Phe(para-[phenyl-ethoxy]) (U3) at 23; C-terminal amide) [CD4M48_U3] : 29
XNLHFCQLRCKSLGLLGRCAXTXCACV (not fully specified; N-terminal thiopropionic acid (TPA) at position 1; (D)Pro at 21; para-cyclo-hexylmethoxyphenylalanine (U1) at 23; C-terminal amide) [CD4M48_U1] : 0.3
XNLHFCQLRCKSLGLLGRCAXTFCACV (not fully specified; N-terminal thiopropionic acid (TPA) at position 1; (D)Pro at 21; C-terminal amide, optimized mini-protein, Phe at 23; unlabelled monomer; also called B4T) [CD4M48] : 63
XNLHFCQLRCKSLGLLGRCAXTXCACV (not fully specified; N-terminal thiopropionic acid (TPA) at position 1; (D)Pro at 21; biphenylalanine (Bip) at 23; C-terminal amide) [CD4M47] : 91

With those in mind, consider the next binder.
Given the binder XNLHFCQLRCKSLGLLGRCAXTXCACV (not fully specified; N-terminal thiopropionic acid (TPA) at position 1; (D)Pro at 21; para-cyclo-pentylethoxyphenylalanine (U2) at 23; C-terminal amide) [CD4M48_U2] , what is its reported EC50, single-cycle HIV-1 pseudovirus infection of GHOST cells (luciferase)?
3.6
